target system: human bile salt export pump (BSEP) efflux transporter (Homo sapiens, UniProt O95342)
Construct: purchased SOLVO Biotechnology Charles River Laboratories, Szeged, Hungary; host or cells: HEK293 (inside out membrane vesicles)
Sequence (O95342 whole entry): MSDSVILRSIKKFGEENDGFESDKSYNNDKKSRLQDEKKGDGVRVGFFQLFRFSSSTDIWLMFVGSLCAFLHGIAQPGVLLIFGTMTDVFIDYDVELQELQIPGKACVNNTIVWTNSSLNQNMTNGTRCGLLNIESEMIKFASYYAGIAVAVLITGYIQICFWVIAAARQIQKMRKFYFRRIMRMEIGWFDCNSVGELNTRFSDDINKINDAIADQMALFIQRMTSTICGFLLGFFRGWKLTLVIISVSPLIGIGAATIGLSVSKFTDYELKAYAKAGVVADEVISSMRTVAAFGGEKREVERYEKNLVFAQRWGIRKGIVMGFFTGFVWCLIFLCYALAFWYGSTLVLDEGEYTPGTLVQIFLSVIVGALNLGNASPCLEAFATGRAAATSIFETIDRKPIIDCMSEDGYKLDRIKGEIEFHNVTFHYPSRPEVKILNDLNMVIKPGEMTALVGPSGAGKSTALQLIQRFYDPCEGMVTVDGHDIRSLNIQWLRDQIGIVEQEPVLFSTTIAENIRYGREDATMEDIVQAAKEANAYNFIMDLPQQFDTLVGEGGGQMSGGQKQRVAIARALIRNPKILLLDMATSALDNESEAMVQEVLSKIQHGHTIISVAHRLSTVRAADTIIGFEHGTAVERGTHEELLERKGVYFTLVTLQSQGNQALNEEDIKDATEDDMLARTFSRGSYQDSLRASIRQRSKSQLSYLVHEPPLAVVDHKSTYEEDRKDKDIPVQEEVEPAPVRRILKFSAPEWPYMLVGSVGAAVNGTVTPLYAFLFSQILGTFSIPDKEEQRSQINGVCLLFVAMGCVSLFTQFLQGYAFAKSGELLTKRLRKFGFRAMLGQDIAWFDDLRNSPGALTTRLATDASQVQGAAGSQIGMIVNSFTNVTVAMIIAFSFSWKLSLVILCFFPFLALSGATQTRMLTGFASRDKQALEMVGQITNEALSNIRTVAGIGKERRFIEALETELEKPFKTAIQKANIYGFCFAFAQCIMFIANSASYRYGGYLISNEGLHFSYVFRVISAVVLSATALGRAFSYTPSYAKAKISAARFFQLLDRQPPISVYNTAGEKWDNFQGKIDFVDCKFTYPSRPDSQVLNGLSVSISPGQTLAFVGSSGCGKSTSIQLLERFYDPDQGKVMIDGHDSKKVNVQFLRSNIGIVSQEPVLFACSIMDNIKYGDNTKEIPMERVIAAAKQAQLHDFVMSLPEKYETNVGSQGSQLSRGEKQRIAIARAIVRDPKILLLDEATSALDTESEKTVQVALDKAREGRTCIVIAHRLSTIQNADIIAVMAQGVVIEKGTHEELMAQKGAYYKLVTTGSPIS
protocol summary: BSEP Vesicular Transport Inhibition Assay (IC50 determination)
Type: biochemical
test context: human BSEP (HEK293) vesicles; taurocholate 0.2 μM; 4 mM Mg-ATP; 10 concentrations, 1 replicate; in nM
Item-by-item account of BSEP Inhibition/IC50
property label: BSEP Inhibition/IC50

{"compound": "CCN(C)S(=O)(=O)Nc1ccc(F)c(Oc2ccc3ncn(C4CC5(CCN(C6CCC(c7cc8c(cc7F)c(N7CCC(=O)NC7=O)nn8C)CC6F)CC5)C4)c(=O)c3c2)c1C#N (single isomer, unassigned)", "measurement qualifier": "=", "observed measurement": 14100}
{"compound": "Cn1nc(N2CCC(=O)NC2=O)c2cc(F)c(N3CC4(CC(N5CCC6(CC5)CC(n5cnc7ccc(Oc8c(F)ccc(NS(=O)(=O)N9C[C@H]%10C[C@H]%10C9)c8C#N)cc7c5=O)C6)C4)C3)cc21 (stereo partly drawn)", "measurement qualifier": "=", "observed measurement": 11860}
{"compound": "CCN(C)S(=O)(=O)Nc1ccc(F)c(Oc2ccc3ncc(C4CC5(CCN(C6CCC(c7cc8c(cc7F)c(N7CCC(=O)NC7=O)nn8C)CC6)CC5)C4)nc3c2)c1C#N (single isomer, unassigned)", "measurement qualifier": "=", "observed measurement": 12180}
{"compound": "CCN(C)S(=O)(=O)Nc1ccc(F)c(Oc2ccc3ncn(C4CC5(C4)CN(C4CCC(c6cc7c(cc6F)c(N6CCC(=O)NC6=O)nn7C)CC4)C5)c(=O)c3c2)c1C#N (single isomer, unassigned)", "measurement qualifier": ">", "observed measurement": 40000}
{"compound": "COC1CN(S(=O)(=O)Nc2ccc(F)c(Oc3ccc4ncn(C5CC6(CCN(C7CC8(C7)CN(c7cc9c(cc7F)c(N7CCC(=O)NC7=O)nn9C)C8)CC6)C5)c(=O)c4c3)c2C#N)C1 (stereo not drawn)", "measurement qualifier": "=", "observed measurement": 26550}
{"compound": "Cn1nc(N2CCC(=O)NC2=O)c2cc(F)c(N3CC4(CC(N5CCC6(CC5)CC(n5cnc7ccc(Oc8c(F)ccc(NS(=O)(=O)C9CCC9)c8C#N)cc7c5=O)C6)C4)C3)cc21", "measurement qualifier": "=", "observed measurement": 12760}
{"compound": "Cn1nc(N2CCC(=O)NC2=O)c2cc(F)c(N3CC4(CC(N5CCC6(CC5)CC(n5cnc7ccc(Oc8c(F)ccc(NS(=O)(=O)C9CC9)c8C#N)cc7c5=O)C6)C4)C3)cc21", "measurement qualifier": "=", "observed measurement": 12720}
{"compound": "CCN(C)S(=O)(=O)Nc1ccc(F)c(Oc2ccc3ncc(OCC4CCN(C5CCC(c6cc7c(cc6F)c(N6CCC(=O)NC6=O)nn7C)CC5)CC4)nc3c2)c1C#N (single isomer, unassigned)", "measurement qualifier": ">", "observed measurement": 40000}
{"compound": "CO[C@@H]1CCN(S(=O)(=O)Nc2ccc(F)c(Oc3ccc4ncn(C5CC6(CCN(C7CC8(C7)CN(c7cc9c(cc7F)c(N7CCC(=O)NC7=O)nn9C)C8)CC6)C5)c(=O)c4c3)c2C#N)C1 (stereo partly drawn)", "measurement qualifier": ">", "observed measurement": 40000}
{"compound": "Cn1nc(N2CCC(=O)NC2=O)c2cc(F)c(C3CCC(N4CCC5(CC4)CC(n4cnc6ccc(Oc7c(F)ccc(NS(=O)(=O)C8CCCC8)c7C#N)cc6c4=O)C5)CC3)cc21 (single isomer, unassigned)", "measurement qualifier": ">", "observed measurement": 40000}
{"compound": "Cn1nc(N2CCC(=O)NC2=O)c2cc(F)c(N3CC4(CC(N5CCC6(CC5)CC(n5cnc7ccc(Oc8c(F)ccc(NS(=O)(=O)N9CC[C@@H](F)C9)c8C#N)cc7c5=O)C6)C4)C3)cc21", "measurement qualifier": ">", "observed measurement": 40000}
{"compound": "CCN(C)S(=O)(=O)Nc1ccc(F)c(Oc2ccc3ncn([C@H]4COC5(CCN(C6CC7(C6)CN(c6cc8c(cc6F)c(N6CCC(=O)NC6=O)nn8C)C7)CC5)C4)c(=O)c3c2)c1C#N", "measurement qualifier": "=", "observed measurement": 21770}
{"compound": "CCN(C)S(=O)(=O)Nc1ccc(F)c(Oc2ccc3ncc([C@@H]4COC5(CCN(C6CCC(c7cc8c(cc7F)c(N7CCC(=O)NC7=O)nn8C)CC6)CC5)C4)nc3c2)c1C#N (single isomer, unassigned)", "measurement qualifier": "=", "observed measurement": 11010}
{"compound": "CCN(C)S(=O)(=O)Nc1ccc(F)c(Oc2ccc3ncn([C@H]4COC5(CCC(N6CCC(c7cc8c(cc7F)c(N7CCC(=O)NC7=O)nn8C)C(F)(F)C6)CC5)C4)c(=O)c3c2)c1C#N (single isomer, unassigned)", "measurement qualifier": "=", "observed measurement": 963.6}
{"compound": "CCN(C)S(=O)(=O)Nc1ccc(F)c(Oc2ccc3ncn([C@H]4CCC5(CCN(C6CCC(c7cc8c(cc7F)c(N7CCC(=O)NC7=O)nn8C)CC6)CC5)C4)c(=O)c3c2)c1C#N (single isomer, unassigned)", "measurement qualifier": "=", "observed measurement": 10060}
{"compound": "CCN(C)S(=O)(=O)Nc1ccc(F)c(Oc2ccc3ncn(C4CC5(CCN(C6CC7(CCN(c8cc9c(cc8F)c(N8CCC(=O)NC8=O)nn9C)CC7)C6)CC5)C4)c(=O)c3c2)c1C#N (stereo not drawn)", "measurement qualifier": "=", "observed measurement": 15250}
{"compound": "CCN(C)S(=O)(=O)Nc1ccc(F)c(Oc2ccc3ncn(C4CC5(CCN(C6CCN(c7cc8c(cc7F)c(N7CCC(=O)NC7=O)nn8C)CC6)CC5)C4)c(=O)c3c2)c1C#N", "measurement qualifier": ">", "observed measurement": 40000}
{"compound": "CN(CCO)S(=O)(=O)Nc1ccc(F)c(Oc2ccc3ncn(C4CC5(CCN(C6CCC(c7cc8c(cc7F)c(N7CCC(=O)NC7=O)nn8C)CC6F)CC5)C4)c(=O)c3c2)c1C#N (single isomer, unassigned)", "measurement qualifier": "=", "observed measurement": 21630}
